This collection of values is drawn from patent US8946294B2.

Biological target: C. fumiferana EcR with a E274V/V390I/Y410E mutation (VY-CfEcR-DEF) (Choristoneura fumiferana)
Experiment: Cellular gene-switch assay, VY-Cf EcR, luciferase reporter
Settings: NIH3T3 cells, 48-hour incubation, luciferase activity
measurementName: EC50 (nM)
Hi! Could you send only the number? It should be in nM, unit omitted.

Ask: Which EC50 is reported for this compound? CCC[C@@H](N(NC(=O)c1cccc(OC)c1CC)C(=O)c1cc(C)cc(C)c1)C(C)(C)C [Compound 1]
Result: 0.133
